- SUBJECT OF TEST: EGFR (Homo sapiens)
- Construct: purchased Enzo Life Sciences Inc, NY, USA; Signal Chem, Richmond, Canada
- Sequence (P00533 25-1210): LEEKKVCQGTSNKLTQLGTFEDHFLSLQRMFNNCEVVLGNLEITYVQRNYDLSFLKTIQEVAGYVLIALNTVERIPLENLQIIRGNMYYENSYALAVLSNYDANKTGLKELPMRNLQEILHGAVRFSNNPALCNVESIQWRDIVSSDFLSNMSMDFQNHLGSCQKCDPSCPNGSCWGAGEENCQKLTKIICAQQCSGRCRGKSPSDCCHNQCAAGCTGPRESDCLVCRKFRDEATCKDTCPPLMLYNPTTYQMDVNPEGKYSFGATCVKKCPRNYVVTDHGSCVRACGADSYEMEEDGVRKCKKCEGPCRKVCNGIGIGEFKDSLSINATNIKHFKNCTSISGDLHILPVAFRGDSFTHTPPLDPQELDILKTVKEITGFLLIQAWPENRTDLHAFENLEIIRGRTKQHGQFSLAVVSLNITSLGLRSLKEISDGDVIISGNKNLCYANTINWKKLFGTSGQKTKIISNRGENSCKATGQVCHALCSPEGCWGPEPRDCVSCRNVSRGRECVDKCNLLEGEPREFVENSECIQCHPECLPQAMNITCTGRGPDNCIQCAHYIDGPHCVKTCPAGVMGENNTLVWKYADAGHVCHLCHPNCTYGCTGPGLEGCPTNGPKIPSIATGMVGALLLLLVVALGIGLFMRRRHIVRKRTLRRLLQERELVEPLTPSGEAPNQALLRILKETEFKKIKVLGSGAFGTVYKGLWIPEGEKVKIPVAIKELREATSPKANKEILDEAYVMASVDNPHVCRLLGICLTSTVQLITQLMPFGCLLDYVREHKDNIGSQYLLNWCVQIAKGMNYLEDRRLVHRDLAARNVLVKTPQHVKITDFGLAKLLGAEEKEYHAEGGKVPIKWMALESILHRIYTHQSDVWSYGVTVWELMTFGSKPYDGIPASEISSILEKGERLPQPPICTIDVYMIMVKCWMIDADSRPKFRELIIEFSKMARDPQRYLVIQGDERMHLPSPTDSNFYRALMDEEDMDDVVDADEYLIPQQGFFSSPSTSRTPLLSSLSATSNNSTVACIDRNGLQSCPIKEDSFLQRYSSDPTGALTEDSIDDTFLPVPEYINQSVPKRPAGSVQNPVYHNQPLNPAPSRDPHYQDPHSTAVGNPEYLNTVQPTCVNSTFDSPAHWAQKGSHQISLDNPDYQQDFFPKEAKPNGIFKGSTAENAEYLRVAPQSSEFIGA
- PROTOCOL SUMMARY: In vitro kinase assay, EGFR
- Type: biochemical
- CONDITION DESCRIPTION: ATP 50 μM, average of three independent experiments in duplicate, read-out: IC50 EGFR kinase inhibition
pIC50: −log10 of the molar value.
READOUT: pIC50

COMPOUND STRUCTURE STRING: Cc1nc(Nc2ncc(C(=O)Nc3c(C)cccc3Cl)s2)cc(N2CCN(CCOC(=O)CCC(=O)Nc3ccc4ncnc(Nc5cccc(Cl)c5)c4c3)CC2)n1
VALUE OBSERVED: 6.40
--
COMPOUND STRUCTURE STRING: Cc1nc(Nc2ncc(C(=O)Nc3c(C)cccc3Cl)s2)cc(N2CCN(CCOC(=O)CCC(=O)OCCN(C)Cc3ccc(C(=O)Nc4ccc5ncnc(Nc6cccc(Cl)c6)c5c4)cc3)CC2)n1
VALUE OBSERVED: 6.92

[a] Cc1nc(Nc2ncc(C(=O)Nc3c(C)cccc3Cl)s2)cc(N2CCN(CCOC(=O)OCCN3CCN(CCNc4ccc5ncnc(Nc6cccc(Br)c6)c5c4)CC3)CC2)n1
[b] Cc1nc(Nc2ncc(C(=O)Nc3c(C)cccc3Cl)s2)cc(N2CCN(CCOC(=O)c3cnc(C(=O)Nc4ccc5ncnc(Nc6cccc(Cl)c6)c5c4)cn3)CC2)n1
// query # query: argmin of pIC50 over a and b Respond using the label that marks the chosen record.
// result a
